assay: Antagonist activity at CXCR3 assessed as inhibition of ITAC-mediated cell migration in presence of 100% human serum
pIC50: −log10 of the molar value.
PARAMETER: pIC50

CCS(=O)(=O)CCN(C(=O)Cc1ccc(C(F)(F)F)c(F)c1)[C@H](C)c1nc2ncccc2c(=O)n1-c1ccc(Cl)cc1: 6.97
C[C@H](c1nc2ncccc2c(=O)n1-c1ccc(F)cc1)N(CC1CCS(=O)(=O)CC1)C(=O)Cc1ccc(C(F)(F)F)c(F)c1: 7.05
CCS(=O)(=O)CCN(C(=O)Cc1ccc(F)c(C(F)(F)F)c1)[C@H](C)c1nc2ncccc2c(=O)n1-c1ccc(Cl)cc1: 6.99
C[C@H](c1nc2ncccc2c(=O)n1-c1ccc(F)cc1)N(CC1CCS(=O)(=O)CC1)C(=O)Cc1ccc(F)c(C(F)(F)F)c1: 7.14
